Reported IC50 against IRAK4 (Homo sapiens (Human), UniProt Q9NWZ3), gathered from multiple publications, appears below.
measured_attribute: IC50 (nM)

# mol, IC50 / nM
rows = [
    ("CC(C)Nc1cc(Nc2nc3scnc3cc2F)ncc1C(=O)NCC(F)(F)C(C)(C)O", 3.4),
    ("COc1cc2nn([C@H]3C[C@H](C(C)(C)O)C3)cc2cc1NC(=O)c1cnn2cccnc12", 3.6),
]

P = OC[C@H]1C[C@@H](Nc2nc(NC3CCNCC3)ncc2-c2nc3ccccc3s2)[C@H](O)[C@@H]1O
Q = CC(=O)N1CCC(F)(c2cc(-c3cnc(-n4ncc5cc(C#N)cnc54)cc3NC(C)C)on2)CC1
Inquiry: From the items above, decide which of P and Q has the lower IC50 reading. Refer to your chosen item by its label in the answer.
Reply text: Q

###

Literature compilation of pIC50 measurements on IRAK4 (Homo sapiens (Human)).
pIC50: −log10 of the molar value.
measured_attribute: pIC50

# compound, system_tested, value_observed
rows = [
    ("CC(C)Cn1cc(Nc2cc(-c3cnn4cc(Cl)cnc34)ncc2C(=O)NC[C@@H](F)C(C)(C)O)cn1", "IRAK4 (Homo sapiens (Human))", 8.70),
    ("Oc1cc(-c2ccc3ncnc(N[C@H]4CC[C@H](N5CCOCC5)CC4)c3c2)ccn1", "IRAK4 (Homo sapiens (Human))", 7.82),
    ("O=C(NCCN1CCCC1)c1cnc(Nc2ccc3ncsc3c2)cc1NC1CCCC1", "IRAK4 (Homo sapiens (Human))", 8.38),
]

a = CC(C)Nc1cc(Nc2ccc3ncsc3c2)ncc1C(=O)N[C@H]1CC[C@H](C(=O)NC23CCC(O)(CC2)C3)CC1
b = CC(C)(O)c1cc2nn(C3CCN(CCC4CCC5(CC4)CCN(C(=O)c4ccc(OC(F)(F)F)c(N6CCC(=O)NC6=O)c4)CC5)CC3)cc2cc1NC(=O)c1cccc(C(F)(F)F)n1
c = CC(C)Nc1cc(-c2cnc3ccc(NCC(C)(C)O)nn23)ncc1C(=O)NC[C@@H](F)C(C)(C)O
Inquiry: Sort low-to-high on pIC50, please. Output the labels ranked as instructed.
Reply text: b, c, a
(b: 7.52, c: 7.96, a: 8.47)

A = CC(C)(O)[C@H](F)CNC(=O)c1cnc(Nc2ccc3nccn3n2)cc1NC1CC1
B = CC(=O)N1CCC(Nc2nn(C(C)C)c3c2cnn2cc(-c4ccncc4)cc32)CC1
C = CC(C)Nc1cc(-c2cnc3cc(Cl)cnn23)ncc1C(=O)NC[C@@H](F)C(C)(C)O
D = CC(=O)N1CCC(N2CC(n3cc(NC(=O)c4cccc(-c5cnn(CC(F)(F)F)c5)n4)c(C(F)F)n3)C2)CC1
E = Cn1cc(Nc2cc(-c3cnc4cc(C#N)cnn34)ncc2C(=O)NC[C@@H](F)C(C)(C)O)cn1
Inquiry: Rank the items in ascending order with respect to pIC50. Please list each label once, in the requested order.
Reply text: B, E, A, C, D
(B: 6.86, E: 8.05, A: 8.29, C: 8.52, D: 9.06)

###

pIC50: −log10 of the molar value.
Compiled from multiple publications: pIC50 readings for IRAK4 (Homo sapiens (Human), UniProt Q9NWZ3).
measured_attribute: pIC50

A = CNc1cc(-c2ccc3cc(C#N)cnn23)ncc1-c1cn([C@H]2CC[C@H](NC(=O)C3CC3)CC2)nn1
B = COc1cc2nn(C3CCOCC3)cc2cc1NC(=O)c1nc(C)no1
C = CC(C)Nc1cc(-c2ccn(-c3ccncc3)n2)ncc1C(=O)NC[C@@H](F)C(C)(C)O
Inquiry: With regard to pIC50, arrange the entries in ascending order, please. The response must list the labels following the requested ordering.
Reply text: B, C, A
